# Test system: Pancreatin
# test_protocol: Protease stability in simulated intestinal fluid (Pancreatin-SIF, FaSSIF)
# Format: in vitro ADME
# details: 240 min, 1 μM peptide, 37° C., read-out: FaSSIF 240 (min), remaining percent of peptide
# Protocol: Studies were carried out in simulated intestinal fluid (SIF) and simulated gastric fluid (SGF) to evaluate gastric stability of the peptide compounds disclosed herein. […] To 76 μL of the Pepsin-SGF buffer, 4 μL of the 20 µM peptide stock solution was added and incubated at 37° C. […] The samples were centrifuged for 20 minutes and an aliquot of the supernatant 100 μL were transferred to a LoBind-MTP plate and analyzed by LCMS/MS. […]
Positions of bridges follow the written chain, without caps; N, C: chain ends. Non-standard residues stand in square brackets, D forms with d. Residues, ends and D or L forms follow the SMILES beside them. *: point of attachment. Trp(7-Me) = Cc1cccc2c(C[C@H](N)C(=O)O)c[nH]c12; 2Nal = N[C@@H](Cc1ccc2ccccc2c1)C(=O)O; Me2NCH2CH2 = CN(C)CC*; Aib = CC(C)(N)C(=O)O; Ava = NCCCCC(=O)O
value_type: remaining at 4 h, 1 µM (%)
Express your answer in %, writing the number without its unit.

Cc1cccc2c(C[C@@H]3NC(=O)[C@H]([C@@H](C)O)NC(=O)[C@H](CC(N)=O)NC(=O)[C@@H]4CSSC[C@H](NC(=O)[C@H](CCC(N)=O)NC3=O)C(=O)N[C@@H](Cc3ccc(OCCN(C)C)cc3)C(=O)N[C@@H](Cc3ccc5ccccc5c3)C(=O)NC(C)(C)C(=O)N[C@H](C(=O)N[C@@H](CO)C(=O)N[C@@H](Cc3c[nH]cn3)C(N)=O)CCC(=O)NCCCCC(=O)N4)c[nH]c12 [compound 43] ([Ava]CNT[Trp(7-Me)]QCY(Me2NCH2CH2)[2Nal][Aib]ESH-NH2; disulfide 2-7; lactam N-11); 67

// below: remaining at 4 h, 1 µM requested for another compound
For record CC(=O)NCCCC[C@@H]1NC(=O)[C@H](Cc2c[nH]c3c(C)cccc23)NC(=O)[C@H]([C@@H](C)O)NC(=O)[C@H](CC(N)=O)NC(=O)[C@@H]2CSSC[C@H](NC1=O)C(=O)N[C@@H](Cc1ccc(OCCN(C)C)cc1)C(=O)N[C@@H](Cc1ccc3ccccc3c1)C(=O)NC(C)(C)C(=O)N[C@H](C(=O)N[C@@H](CC(N)=O)C(=O)N[C@@H](Cc1c[nH]cn1)C(N)=O)CCC(=O)NCCCCC(=O)N2 [compound 20] ([Ava]CNT[Trp(7-Me)]K(Ac)CY(Me2NCH2CH2)[2Nal][Aib]ENH-NH2; disulfide 2-7; lactam N-11) the listed remaining at 4 h, 1 µM is 72

* * *

Listed below: Chemical stability (relative purity loss) Buffer pH 6.5 values for each entry.
# test_protocol: Chemical stability assessment of peptides (relative purity loss)
# Assay type: physicochemical
# details: 50 mM phosphate buffer pH 6.5 + acetonitrile (1:1); 24 hours at 37° C.
Positions of bridges follow the written chain, without caps; N, C: chain ends. Non-standard residues stand in square brackets, D forms with d. Residues, ends and D or L forms follow the SMILES beside them. *: point of attachment. 2Nal = N[C@@H](Cc1ccc2ccccc2c1)C(=O)O; AEF = NCCOc1ccc(C[C@H](N)C(=O)O)cc1; αMeL = CC(C)C[C@](C)(N)C(=O)O; Me2NCH2CH2 = CN(C)CC*; Aib = CC(C)(N)C(=O)O; Ahx = NCCCCCC(=O)O; Ava = NCCCCC(=O)O
Express your answer in %, writing the number without its unit.

C[C@@H](O)[C@@H]1NC(=O)[C@H](CC(N)=O)NC(=O)[C@@H]2CSSC[C@H](NC(=O)[C@H](CCC(N)=O)NC(=O)[C@H](Cc3c[nH]c4ccccc34)NC1=O)C(=O)N[C@@H](Cc1ccc(OCCN)cc1)C(=O)N[C@@H](Cc1ccc3ccccc3c1)C(=O)NC(C)(C)C(=O)N[C@H](C(=O)N[C@@H](CC(N)=O)C(=O)NCC(N)=O)CC(=O)NCCCCCC(=O)N2 [compound 9] ([Ahx]CNTWQC[AEF][2Nal][Aib]DNG-NH2; disulfide 2-7; lactam N-11); 5.5

For record CC(C)C[C@]1(C)NC(=O)[C@H](Cc2ccc3ccccc3c2)NC(=O)[C@H](Cc2ccc(OCCN(C)C)cc2)NC(=O)[C@@H]2CSSC[C@H](NC(=O)CCCCNC(=O)CC[C@@H](C(=O)N[C@@H](CC(N)=O)C(=O)N[C@@H](CC(N)=O)C(N)=O)NC1=O)C(=O)N[C@@H](CC(N)=O)C(=O)N[C@@H]([C@@H](C)O)C(=O)N[C@@H](Cc1c[nH]c3ccccc13)C(=O)N[C@@H](CCC(N)=O)C(=O)N2 [compound 27] ([Ava]CNTWQCY(Me2NCH2CH2)[2Nal][αMeL]ENN-NH2; disulfide 2-7; lactam N-11) the listed Chemical stability (relative purity loss) Buffer pH 6.5 is 0.0

Origin of measurements: patent US20260258084A1
